- MEASUREMENT_TARGET: T1, human αIIbβ3 integrin on transfected CHO K1 cells (human, UniProt P08514 32-1039; P05106 27-788)
- T1 construct: whole, on cells; CHO K1 cells transfected with human αIIb and β3 cDNA; about 30% of the cells expressed the receptor; also called platelet receptor; platelet integrin
- METHOD_DESCRIPTION: adhesion of αIIbβ3 CHO K1 cells to the peptide monolayer, 300 µM cRGDFG present
- From the text: […] CHO K1 cells were used that were transfected with the αIIbβ3 receptor, as described previously (Salsmann et al., 2005). Cells were transfected with pcDNA3.1 vectors that coded for αIIb and β3 using FuGENE6 and analyzed by FACS after labeling with the PAC-1 (anti-αIIbβ3) and H-96 (anti-β3) antibodies. […]
Ends that are not written are not given here. maleimide monolayer = not defined here
OBSERVED_PROPERTY: binding result

BINDER	binding result
KQAGDC-NH2 (not fully specified (residue 6); also: C-terminal Cys thiol linked to maleimide of monolayer, also called 0.5% KQAGDC SAM) [KQAGDC (SEQ ID NO: 19), immobilized on a self-assembled monolayer]	binds
GGRDGSC(maleimide monolayer)-NH2 (reading uncertain, Control; also called 0.5% GGRDGSC) [GGRDGSC (SEQ ID NO: 70), scrambled peptide immobilized on a self-assembled monolayer]	no binding
QAGDVC-NH2 (not fully specified (residue 6); also: C-terminal Cys thiol linked to maleimide of monolayer, also called 0.5% QAGDVC SAM) [QAGDVC (SEQ ID NO: 16), immobilized on a self-assembled monolayer]	binds
GHHLGGADQAGKVC-NH2 (not fully specified (residue 14); also: C-terminal Cys thiol linked to maleimide of monolayer, Control) [GHHLGGADQAGKVC (SEQ ID NO: 71), scrambled peptide immobilized on a self-assembled monolayer]	no binding
KQAGC-NH2 (not fully specified (residue 5); also: C-terminal Cys thiol linked to maleimide of monolayer, also called 0.5% KQAGC SAM) [KQAGC (SEQ ID NO: 20), immobilized on a self-assembled monolayer]	no binding
GGAKQAC(maleimide monolayer)-NH2 (reading uncertain, also called 0.5% GGAKQAC SAM) [GGAKQAC (SEQ ID NO: 15), immobilized on a self-assembled monolayer]	no binding

Would you kindly share the measured binding result for GDVC(maleimide monolayer)-NH2 (reading uncertain, also called 0.5% GDVC SAM) [GDVC (SEQ ID NO: 18), immobilized on a self-assembled monolayer] ? no binding
